study-system: PI3Kγ (p120γ)(h) (Homo sapiens, UniProt P48736)
Construct: purchased Upstate (Millipore Co) #14-558
Sequence (P48736 whole entry): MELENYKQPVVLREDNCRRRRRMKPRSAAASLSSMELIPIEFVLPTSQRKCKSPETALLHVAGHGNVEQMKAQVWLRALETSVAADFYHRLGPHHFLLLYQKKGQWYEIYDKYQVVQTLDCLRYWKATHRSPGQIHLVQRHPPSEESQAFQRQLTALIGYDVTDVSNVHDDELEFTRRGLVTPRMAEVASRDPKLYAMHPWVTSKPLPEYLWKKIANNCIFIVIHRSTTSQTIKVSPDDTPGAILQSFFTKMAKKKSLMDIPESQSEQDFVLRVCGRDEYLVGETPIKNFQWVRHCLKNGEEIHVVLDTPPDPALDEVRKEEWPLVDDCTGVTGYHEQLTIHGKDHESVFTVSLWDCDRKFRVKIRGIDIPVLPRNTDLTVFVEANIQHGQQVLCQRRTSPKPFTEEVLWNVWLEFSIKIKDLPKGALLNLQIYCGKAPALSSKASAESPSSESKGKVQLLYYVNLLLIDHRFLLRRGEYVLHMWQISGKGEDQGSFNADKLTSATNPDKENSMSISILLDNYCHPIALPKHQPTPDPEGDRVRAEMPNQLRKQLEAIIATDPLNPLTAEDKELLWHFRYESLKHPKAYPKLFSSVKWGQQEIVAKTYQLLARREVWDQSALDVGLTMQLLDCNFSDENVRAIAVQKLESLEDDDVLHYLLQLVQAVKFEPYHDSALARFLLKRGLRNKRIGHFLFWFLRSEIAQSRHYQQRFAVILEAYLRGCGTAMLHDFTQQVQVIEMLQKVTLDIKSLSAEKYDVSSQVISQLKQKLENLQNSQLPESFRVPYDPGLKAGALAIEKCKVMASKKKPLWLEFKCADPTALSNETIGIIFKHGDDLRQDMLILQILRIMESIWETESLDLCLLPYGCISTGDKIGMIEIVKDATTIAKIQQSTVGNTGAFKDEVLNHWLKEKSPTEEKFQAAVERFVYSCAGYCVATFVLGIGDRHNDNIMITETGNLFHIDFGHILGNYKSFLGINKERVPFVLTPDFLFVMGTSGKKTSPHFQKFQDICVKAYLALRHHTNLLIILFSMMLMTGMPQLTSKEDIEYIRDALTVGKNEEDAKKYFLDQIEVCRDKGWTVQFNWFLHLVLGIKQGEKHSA
measurement-notes: PI3K-HTRF in vitro enzyme assay, PI3Kγ
Assay type: biochemical
setup-conditions: enzyme 0.4 μg/ml

{"columns": ["compound", "study-system", "IC50 / nM"],
 "data": [
  ["CC[C@H](Nc1ncnc2cccc(F)c12)c1nc2cccc(-c3cnc(F)nc3)c2c(=O)n1-c1ccccc1 [Example 26]", "PI3Kγ (p120γ)(h) (Homo sapiens, UniProt P48736)", 3420],
  ["Cc1ncc(-c2cccc3cc([C@H](C)Nc4ncnc5ccc(C#N)cc45)n(-c4ccc(F)cc4)c(=O)c23)cn1 [Example 38]", "PI3Kγ (p120γ)(h) (Homo sapiens, UniProt P48736)", 67],
  ["CCOc1ncc(-c2cccc3nc([C@H](CC)Nc4ncnc5ccc(C#N)cc45)n(-c4ccccc4)c(=O)c23)cn1 [Example 6]", "PI3Kγ (p120γ)(h) (Homo sapiens, UniProt P48736)", 1960],
  ["CC[C@H](Nc1ncnc2ccc(C#N)cc12)c1nc2cccc(-c3cnc(OC)nc3)c2c(=O)n1-c1ccccc1 [Example 5]", "PI3Kγ (p120γ)(h) (Homo sapiens, UniProt P48736)", 2150]
]}
